# Test description: Metabolic stability in human serum assessed as half time of disappearance at 1 mM by MALDI-TOF mass spectrometry assay
# Format: ADME, cell-free
# Applied conditions: read-out: T50
Non-standard residues stand in square brackets, D forms with d. Residues, ends and D or L forms follow the SMILES beside them. *: point of attachment. Pentanoyl(5-guanidino) = NC(N)=NCCCCC(=O)*; αMeR = C[C@](N)(CCCNC(=N)N)C(=O)O; Tle = CC(C)(C)[C@H](N)C(=O)O; X3 = C[C@](N)(CCCCN)CC(=O)*; β3hK = NCCCC[C@H](N)CC(=O)O

{"Compound": "CC(C)C[C@H](NC(=O)[C@@H](NC(=O)[C@H](Cc1c[nH]c2ccccc12)NC(=O)[C@@H]1CCCN1C(=O)[C@H](CCCCN)NC(=O)CCCCNC(=N)N)C(C)(C)C)C(=O)O ({Pentanoyl(5-guanidino)}-KPW[Tle]L-OH)", "half-life at 1000 µM / h": 103}
{"Compound": "CC[C@@H](C)[C@H](NC(=O)[C@H](Cc1ccc(O)cc1)NC(=O)[C@@H]1CCCN1C(=O)[C@H](CCCNC(=N)N)NC(=O)CCCCNC(=N)N)C(=O)N[C@@H](CC(C)C)C(=O)O", "half-life at 1000 µM / h": 3.83}
{"Compound": "CC(C)C[C@H](NC(=O)[C@@H](NC(=O)[C@H](Cc1ccc(O)cc1)NC(=O)[C@@H]1CCCN1C(=O)[C@H](CCCNC(=N)N)NC(=O)C[C@@](C)(N)CCCCN)C(C)(C)C)C(=O)O (X3-RPY[Tle]L-OH)", "half-life at 1000 µM / h": 42.8}
{"Compound": "CC(C)C[C@H](NC(=O)[C@@H](NC(=O)[C@H](Cc1ccc(O)cc1)NC(=O)[C@@H]1CCCN1C(=O)[C@H](CCCNC(=N)N)NC(=O)C[C@@H](N)CCCCN)C(C)(C)C)C(=O)O (H-[β3hK]RPY[Tle]L-OH)", "half-life at 1000 µM / h": 0.25}
{"Compound": "CC(=O)N[C@@H](CCCCN)CC(=O)N[C@@H](CCCN=C(N)N)C(=O)N1CCC[C@H]1C(=O)N[C@@H](Cc1ccc(O)cc1)C(=O)N[C@H](C(=O)N[C@@H](CC(C)C)C(=O)O)C(C)(C)C (Ac-[β3hK]RPY[Tle]L-OH)", "half-life at 1000 µM / h": 54.5}
{"Compound": "CC[C@@H](C)[C@H](NC(=O)[C@H](Cc1ccc(O)cc1)NC(=O)[C@@H]1CCCN1C(=O)[C@H](CCCN=C(N)N)NC(=O)[C@H](CCCN=C(N)N)N=[N+]=[N-])C(=O)N[C@@H](CC(C)C)C(=O)O", "half-life at 1000 µM / h": 5.05}
{"Compound": "CC(C)C[C@H](NC(=O)[C@@H](NC(=O)[C@H](Cc1c[nH]c2ccccc12)NC(=O)[C@@H]1CCCN1C(=O)[C@H](CCCCN)NC(=O)[C@@](C)(N)CCCNC(=N)N)C(C)(C)C)C(=O)O (H-[αMeR]KPW[Tle]L-OH)", "half-life at 1000 µM / h": 132}
